Origin of the recorded values: patent US9309224B2

# testSystem: unphosphorylated c-FMS kinase (uFMS, Seq. ID no. 1) (Homo sapiens, UniProt P07333)
# Construct: purchased Millipore
# Sequence (P07333 538-972): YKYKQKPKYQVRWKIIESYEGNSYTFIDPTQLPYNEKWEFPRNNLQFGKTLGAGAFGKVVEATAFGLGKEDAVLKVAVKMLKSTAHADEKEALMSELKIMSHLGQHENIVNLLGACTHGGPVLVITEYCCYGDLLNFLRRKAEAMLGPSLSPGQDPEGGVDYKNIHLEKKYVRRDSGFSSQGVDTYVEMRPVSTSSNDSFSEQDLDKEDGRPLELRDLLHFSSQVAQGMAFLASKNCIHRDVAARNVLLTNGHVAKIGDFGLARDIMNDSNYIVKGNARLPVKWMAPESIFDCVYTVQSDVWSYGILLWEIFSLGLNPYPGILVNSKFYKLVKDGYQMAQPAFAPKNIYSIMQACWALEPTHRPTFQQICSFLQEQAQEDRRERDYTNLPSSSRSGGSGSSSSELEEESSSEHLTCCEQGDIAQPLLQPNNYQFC
# methodNotes: uFMS kinase assay (pyruvate kinase/lactate dehydrogenase coupled)
# Type: biochemical
# assayContext: ATP 500 μM
The following molecules are listed with their measured IC50 values.

Prompt: // returns reported IC50 for input CC(C)C(=O)NC(=O)Nc1ccc(Oc2ccnc(NC(=O)C3CCN(C)CC3)c2)cn1
Response: 100 to 1000 nM

###

# testSystem: unphosphorylated PDGFRβ kinase (uPDGFRβ, Seq. ID No. 3) (Homo sapiens, UniProt P09619)
# Sequence (P09619 557-1105): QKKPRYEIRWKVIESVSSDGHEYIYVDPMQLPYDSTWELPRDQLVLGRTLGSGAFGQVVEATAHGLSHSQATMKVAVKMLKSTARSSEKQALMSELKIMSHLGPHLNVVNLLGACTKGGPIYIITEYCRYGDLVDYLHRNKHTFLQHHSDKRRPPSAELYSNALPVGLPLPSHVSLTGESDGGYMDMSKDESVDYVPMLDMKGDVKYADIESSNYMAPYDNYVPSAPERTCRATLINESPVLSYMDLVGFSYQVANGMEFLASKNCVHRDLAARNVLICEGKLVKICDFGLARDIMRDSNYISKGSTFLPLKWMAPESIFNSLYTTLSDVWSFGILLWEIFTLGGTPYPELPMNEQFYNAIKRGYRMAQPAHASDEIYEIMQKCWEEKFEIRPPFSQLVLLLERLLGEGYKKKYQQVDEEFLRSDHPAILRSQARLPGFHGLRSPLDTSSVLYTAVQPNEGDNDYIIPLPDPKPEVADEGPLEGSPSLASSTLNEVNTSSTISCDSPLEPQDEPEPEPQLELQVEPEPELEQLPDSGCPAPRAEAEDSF
# methodNotes: Unphosphorylated PDGFRβ kinase assay (pyruvate kinase/lactate dehydrogenase coupled)
# assayContext: ATP 500 μM
measure: IC50

Solved cases below.
Prompt: // returns reported IC50 for input CNC(=O)c1cc(Oc2ccc(NC(=O)NC(=O)C3(OC)CCCC3)nc2)ccn1
Response: > 1000 nM

Prompt: Can you check CN1CCN(C2CCN(C(=O)Nc3cc(Oc4ccc(NC(=O)NC(=O)C(C)(C)C)nc4)ccn3)CC2)CC1 next?
Response: 100 to 1000 nM

Prompt: Can you check Cc1nc(NC(=O)NC(=O)C(C)(C)C)ccc1Oc1ccnc(NC(=O)N2CCN(C)CC2)c1 next?
Response: > 1000 nM

New cases:
Prompt: // returns reported IC50 for input CC(=O)Nc1cc(Oc2ccc(NC(=O)NC(=O)C(C)C)nc2C)ccn1
Response: 100 to 1000 nM

Prompt: Can you check CC(=O)Nc1cc(Oc2ccc(NC(=O)NC(=O)C3CCOC3)nc2C)ccn1 (centres unmarked) next?
Response: > 1000 nM

Prompt: Can you check CNC(=O)c1cc(Oc2ccc(NC(=O)NC(=O)C3(C(F)(F)F)CCC3)nc2)ccn1 next?
Response: > 1000 nM

Prompt: Can you check CC1(C(=O)NC(=O)Nc2ccc(Oc3ccnc(NC(=O)C4CC4)c3)cn2)CC1 next?
Response: 100 to 1000 nM

Prompt: Can you check COC(C)(C)C(=O)NC(=O)Nc1ccc(Oc2ccnc(NC(C)=O)c2)cn1 next?
Response: 100 to 1000 nM

Prompt: Can you check CC(=O)Nc1cc(Oc2ccc(NC(=O)NC(=O)C3CCOCC3)nc2C)ccn1 next?
Response: 100 to 1000 nM

###

# testSystem: unphosphorylated PDGFRβ kinase (uPDGFRβ, Seq. ID No. 3) (Homo sapiens)
# methodNotes: Unphosphorylated PDGFRβ kinase assay (pyruvate kinase/lactate dehydrogenase coupled)
# assayContext: ATP 500 μM
measure: IC50

Solved cases below.
Prompt: // returns reported IC50 for input CC(C)(C)C(=O)NC(=O)Nc1ccc(Oc2ccnc(C(=O)NC3CC3)c2)cn1 [Example 74]
Response: > 1000 nM

Prompt: Can you check CN1CCC(C(=O)Nc2cc(Oc3ccc(NC(=O)NC(=O)C(C)(C)C)nc3)ccn2)C1 (stereo not drawn) [Example 55] next?
Response: > 1000 nM

New cases:
Prompt: // returns reported IC50 for input CC(=O)Nc1cc(Oc2ccc(NC(=O)NC(=O)CC3CCOCC3)nc2)ccn1 [Example 6]
Response: 10 to 100 nM
